// reported pIC50 per item
Test system: M14
PROTOCOL: NCI 60 five-dose screen M14
Format: cell-based
CONDITION_NOTES: Homo sapiens, five-dose
Convention used: pIC50 is expressed as -log10 of the molar concentration.

COMPOUND: FC(F)(F)c1cc2c(Cl)ncnc2n1CCN1CCCCC1
EXPERIMENTAL_VALUE: 4.65
//
COMPOUND: FC(F)(F)c1cc2c(Cl)ncnc2n1CCC1CCOCC1
EXPERIMENTAL_VALUE: 5.20
//
COMPOUND: FC(F)(F)CN1CCN(CCn2c(C(F)(F)F)cc3c(Cl)ncnc32)CC1
EXPERIMENTAL_VALUE: 4.91
//
COMPOUND: FC(F)(F)c1cc2c(Cl)ncnc2n1CCN1CCOCC1
EXPERIMENTAL_VALUE: 4.69

Turning now to a further compound:
Sample OC1CCC(Cn2c(C(F)(F)F)cc3c(Cl)ncnc32)CC1 (centres unmarked) ; pIC50 observed: 5.06

----------
Test system: T-47D
PROTOCOL: NCI 60 five-dose screen T-47D
Type: cell-based
CONDITION_NOTES: Homo sapiens, T47D, five-dose
VALUE_TYPE: IC (TGI) (µM)
Give the value in µM but do not write µM after it.

Worked set:
COMPOUND: OC1CCC(Cn2c(C(F)(F)F)cc3c(Cl)ncnc32)CC1 (centres unmarked)
IC (TGI) (µM): 100
//
COMPOUND: FC(F)(F)c1cc2c(Cl)ncnc2n1CCN1CCCCC1
IC (TGI) (µM): 100
//
COMPOUND: FC(F)(F)CN1CCN(CCn2c(C(F)(F)F)cc3c(Cl)ncnc32)CC1
IC (TGI) (µM): 63.1
//
COMPOUND: FC(F)(F)c1cc2c(Cl)ncnc2n1CCC1CCOCC1
IC (TGI) (µM): 60.3

Turning now to a further compound:
Tested on T-47D: `FC(F)(F)c1cc2c(Cl)ncnc2n1CCN1CCOCC1` . Observed IC (TGI): 100

----------
Test system: SK-MEL-28
PROTOCOL: NCI 60 five-dose screen SK-MEL-28
Assay type: cell-based
CONDITION_NOTES: Homo sapiens, five-dose
VALUE_TYPE: IC (TGI) (µM)
Give the value in µM but do not write µM after it.

COMPOUND: FC(F)(F)c1cc2c(Cl)ncnc2n1CCN1CCOCC1
IC (TGI) [µM]: 33.1
//
COMPOUND: OC1CCC(Cn2c(C(F)(F)F)cc3c(Cl)ncnc32)CC1 (centres unmarked)
IC (TGI) [µM]: 30.9
//
COMPOUND: FC(F)(F)c1cc2c(Cl)ncnc2n1CCC1CCOCC1
IC (TGI) [µM]: 6.03
//
COMPOUND: FC(F)(F)c1cc2c(Cl)ncnc2n1CCN1CCCCC1
IC (TGI) [µM]: 38

Turning now to a further compound:
Sample `FC(F)(F)CN1CCN(CCn2c(C(F)(F)F)cc3c(Cl)ncnc32)CC1` ; IC (TGI) observed: 37.2

----------
System: NCI-H226
PROTOCOL: NCI 60 five-dose screen NCI-H226
Format: cell-based
CONDITION_NOTES: Homo sapiens, five-dose
// reported pIC50 per item
Convention used: pIC50 is expressed as -log10 of the molar concentration.

MOLECULE: FC(F)(F)c1cc2c(Cl)ncnc2n1CCN1CCOCC1
TEST_TARGET: NCI-H226
VALUE_TYPE: pIC50
EXPERIMENTAL_VALUE: 4.00
--
MOLECULE: FC(F)(F)CN1CCN(CCn2c(C(F)(F)F)cc3c(Cl)ncnc32)CC1
TEST_TARGET: NCI-H226
VALUE_TYPE: pIC50
EXPERIMENTAL_VALUE: 4.00
--
MOLECULE: FC(F)(F)c1cc2c(Cl)ncnc2n1CCN1CCCCC1
TEST_TARGET: NCI-H226
VALUE_TYPE: pIC50
EXPERIMENTAL_VALUE: 4.00
--
MOLECULE: FC(F)(F)c1cc2c(Cl)ncnc2n1CCC1CCOCC1
TEST_TARGET: NCI-H226
VALUE_TYPE: pIC50
EXPERIMENTAL_VALUE: 4.52

Sample OC1CCC(Cn2c(C(F)(F)F)cc3c(Cl)ncnc32)CC1 (centres unmarked) ; pIC50 observed: 4.00

----------
Tested on: HCC-2998
PROTOCOL: NCI 60 five-dose screen HCC-2998
Format: cell-based
CONDITION_NOTES: Homo sapiens, five-dose
VALUE_TYPE: GI50 (nM)
Give the value in nM but do not write nM after it.

Worked set:
MOLECULE: FC(F)(F)c1cc2c(Cl)ncnc2n1CCC1CCOCC1 [NUCC-0226674]
EXPERIMENTAL_VALUE: 1620

MOLECULE: OC1CCC(Cn2c(C(F)(F)F)cc3c(Cl)ncnc32)CC1 (centres unmarked) [NUCC-0226689]
EXPERIMENTAL_VALUE: 1780

MOLECULE: FC(F)(F)c1cc2c(Cl)ncnc2n1CCN1CCOCC1 [NUCC-0226680]
EXPERIMENTAL_VALUE: 2240

MOLECULE: FC(F)(F)CN1CCN(CCn2c(C(F)(F)F)cc3c(Cl)ncnc32)CC1 [NUCC-0226683]
EXPERIMENTAL_VALUE: 1820

Turning now to a further molecule:
Sample FC(F)(F)c1cc2c(Cl)ncnc2n1CCN1CCCCC1 [NUCC-0226679] ; GI50 observed: 4070

----------
System: ACHN
PROTOCOL: NCI 60 five-dose screen ACHN
Type: cell-based
CONDITION_NOTES: Homo sapiens, five-dose
// reported pIC50 per item
Convention used: pIC50 is expressed as -log10 of the molar concentration.

Worked set:
MOLECULE: FC(F)(F)c1cc2c(Cl)ncnc2n1CCN1CCCCC1
pIC50: 4.77

MOLECULE: FC(F)(F)c1cc2c(Cl)ncnc2n1CCN1CCOCC1
pIC50: 4.81

MOLECULE: FC(F)(F)CN1CCN(CCn2c(C(F)(F)F)cc3c(Cl)ncnc32)CC1
pIC50: 4.65

MOLECULE: FC(F)(F)c1cc2c(Cl)ncnc2n1CCC1CCOCC1
pIC50: 4.73

Turning now to a further molecule:
Sample OC1CCC(Cn2c(C(F)(F)F)cc3c(Cl)ncnc32)CC1 (centres unmarked) ; pIC50 observed: 4.81

----------
Tested on: SN12C
PROTOCOL: NCI 60 five-dose screen SN12C
Format: cell-based
CONDITION_NOTES: Homo sapiens, five-dose, read-out: LC50 (the source's name) (converted)
// reported CC50 per item

Worked set:
COMPOUND: FC(F)(F)c1cc2c(Cl)ncnc2n1CCN1CCCCC1 [NUCC-0226679]
VALUE_TYPE: CC50
EXPERIMENTAL_VALUE: ≥ 100 µM
//
COMPOUND: FC(F)(F)c1cc2c(Cl)ncnc2n1CCN1CCOCC1 [NUCC-0226680]
VALUE_TYPE: CC50
EXPERIMENTAL_VALUE: ≥ 100 µM
//
COMPOUND: OC1CCC(Cn2c(C(F)(F)F)cc3c(Cl)ncnc32)CC1 (centres unmarked) [NUCC-0226689]
VALUE_TYPE: CC50
EXPERIMENTAL_VALUE: 53.7 µM
//
COMPOUND: FC(F)(F)c1cc2c(Cl)ncnc2n1CCC1CCOCC1 [NUCC-0226674]
VALUE_TYPE: CC50
EXPERIMENTAL_VALUE: 46.8 µM

Turning now to a further compound:
Sample FC(F)(F)CN1CCN(CCn2c(C(F)(F)F)cc3c(Cl)ncnc32)CC1 [NUCC-0226683] ; CC50 observed: 60.3 µM

----------
System: ACHN
PROTOCOL: NCI 60 five-dose screen ACHN
Type: cell-based
CONDITION_NOTES: Homo sapiens
VALUE_TYPE: pIC50
Convention used: pIC50 is expressed as -log10 of the molar concentration.

Worked set:
SMILES_REPRESENTATION: O=c1ccc(Cn2c(C(F)(F)F)cc3c(Cl)ncnc32)c[nH]1
pIC50: 4.47

SMILES_REPRESENTATION: Fc1ccc(N2CC(Cn3c(C(F)(F)F)cc4c(Cl)ncnc43)C2)c(F)c1
pIC50: 4.66

Turning now to a further molecule:
Tested on ACHN: `COc1cc(Cn2c(C(F)(F)F)cc3c(Cl)ncnc32)ccn1` . Observed pIC50: 4.60

----------
Test system: TK-10
PROTOCOL: NCI 60 five-dose screen TK-10
Format: cell-based
CONDITION_NOTES: Homo sapiens, five-dose
VALUE_TYPE: IC (TGI) (µM)
Give the value in µM but do not write µM after it.

Worked set:
COMPOUND: OC1CCC(Cn2c(C(F)(F)F)cc3c(Cl)ncnc32)CC1 (centres unmarked) [NUCC-0226689]
UNIT_NAME: µM
EXPERIMENTAL_VALUE: 100

COMPOUND: FC(F)(F)c1cc2c(Cl)ncnc2n1CCN1CCOCC1 [NUCC-0226680]
UNIT_NAME: µM
EXPERIMENTAL_VALUE: 100

COMPOUND: FC(F)(F)c1cc2c(Cl)ncnc2n1CCC1CCOCC1 [NUCC-0226674]
UNIT_NAME: µM
EXPERIMENTAL_VALUE: 36.3

COMPOUND: FC(F)(F)CN1CCN(CCn2c(C(F)(F)F)cc3c(Cl)ncnc32)CC1 [NUCC-0226683]
UNIT_NAME: µM
EXPERIMENTAL_VALUE: 100

Tested on TK-10: FC(F)(F)c1cc2c(Cl)ncnc2n1CCN1CCCCC1 [NUCC-0226679] . Observed IC (TGI): 100

FYI, the data here is from patent US20240109903A1.
